These data points were gathered from ChEMBL document CHEMBL1144859.

- Target Entity: UniProt P30968
- Sequence (P30968 whole entry): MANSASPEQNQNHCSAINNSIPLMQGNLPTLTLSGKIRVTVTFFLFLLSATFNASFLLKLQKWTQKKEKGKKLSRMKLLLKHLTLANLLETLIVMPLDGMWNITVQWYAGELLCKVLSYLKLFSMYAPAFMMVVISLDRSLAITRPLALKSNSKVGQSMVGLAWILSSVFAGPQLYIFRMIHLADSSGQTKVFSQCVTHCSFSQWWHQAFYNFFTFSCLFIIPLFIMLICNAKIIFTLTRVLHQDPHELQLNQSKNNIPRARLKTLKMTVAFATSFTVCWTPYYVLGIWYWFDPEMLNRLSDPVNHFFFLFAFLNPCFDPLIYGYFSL
- Assay Text: Antagonist activity at human recombinant GnRHR expressed in CHOK1 cells assessed as reduction in luminescence signal at 3 uM by luciferase reporter gene assay
- Assay type: functional, cell-based
- Measurement Context: CHO-K1
Each record here notes measured Efficacy.
Readout: Efficacy

[[record]]
chemical_structure = "CCNC(=O)Nc1ccc(-c2nc3n(Cc4c(F)cccc4F)cc(C(=O)OCC)c(=O)n3c2CN(CC(=O)NCCCCCC(=O)NCC#Cc2ccc(C#CCNC(=O)CCCCCNC(=O)CN(Cc3ccccc3)Cc3c(-c4ccc(NC(=O)NCC)cc4)nc4n(Cc5c(F)cccc5F)cc(C(=O)OCC)c(=O)n34)cc2)Cc2ccccc2)cc1"
target_entity = "UniProt P30968"
measured_value = "54%"

[[record]]
chemical_structure = "CCNC(=O)Nc1ccc(-c2nc3n(Cc4c(F)cccc4F)cc(C(=O)OCC)c(=O)n3c2CN(CC(=O)NCCCC(=O)NCC#Cc2ccccc2)Cc2ccccc2)cc1"
target_entity = "UniProt P30968"
measured_value = "97%"

[[record]]
chemical_structure = "CCNC(=O)Nc1ccc(-c2nc3n(Cc4c(F)cccc4F)cc(C(=O)OCC)c(=O)n3c2CN(CC(=O)N2CCC(C(=O)NCC#Cc3ccc(C#CCNC(=O)C4CCN(C(=O)CN(Cc5ccccc5)Cc5c(-c6ccc(NC(=O)NCC)cc6)nc6n(Cc7c(F)cccc7F)cc(C(=O)OCC)c(=O)n56)CC4)cc3)CC2)Cc2ccccc2)cc1"
target_entity = "UniProt P30968"
measured_value = "35%"

[[record]]
chemical_structure = "CCNC(=O)Nc1ccc(-c2nc3n(Cc4c(F)cccc4F)cc(C(=O)OCC)c(=O)n3c2CN(CC(=O)N2CCC[C@H]2C(=O)NCC#Cc2cccc(C#CCNC(=O)[C@@H]3CCCN3C(=O)CN(Cc3ccccc3)Cc3c(-c4ccc(NC(=O)NCC)cc4)nc4n(Cc5c(F)cccc5F)cc(C(=O)OCC)c(=O)n34)c2)Cc2ccccc2)cc1"
target_entity = "UniProt P30968"
measured_value = "31%"

